System: Chikungunya virus (CHIKV)
Test description: microbe, parasite or virus in culture
Format: cell-based
Cond: Chikungunya virus, Vero, 48 h, read-out: Percent viral inhibition CHKV
Counter-ions that a name gives are not always drawn.
Returns one of condition met or condition not met; condition met when inhibition at 1 µM is >= 30%.

| Compound | Test target | Qualitative label |
| --- | --- | --- |
| O=C(O)CC1CCN(Cc2cc(Oc3cnc(N4CCNCC4)nc3)nc(-c3cc(Cl)cc(Cl)c3)c2)CC1 [Example 206] | Chikungunya virus (CHIKV) | condition met |
| CC(=O)NCC1CCN(Cc2cc(Oc3ccc(N4CCN(CCC(N)=O)CC4)nc3)nc(-c3cc(Cl)cc(Cl)c3)c2)CC1 [Example 13] | Chikungunya virus (CHIKV) | condition not met |
| CC(=O)NCC1CCN(Cc2cc(-c3cc(Cl)cc(Cl)c3)nc(Oc3ccc(N4CCNCC4)nc3)n2)CC1 [Example 90] | Chikungunya virus (CHIKV) | condition met |
| CC(=O)N[C@H]1[C@@H]2CCN(Cc3cc(Oc4cnc(N5CCN(CCC(=O)O)CC5)nc4)nc(-c4cc(Cl)cc(Cl)c4)c3)CC[C@@H]21 [Example 367] | Chikungunya virus (CHIKV) | condition not met |
| CC(=O)NCC1CCN(Cc2cc(Oc3ccc(N4CCN(C(=O)CCC(=O)O)CC4)nc3)nc(-c3cc(Cl)cc(Cl)c3)c2)CC1 [Example 33] | Chikungunya virus (CHIKV) | condition met |
| C[C@]1(O)C[C@H](N2CCN(c3ncc(Oc4cc(CN5CCC(CC(=O)O)CC5)cc(-c5cc(Cl)cc(Cl)c5)n4)cn3)CC2)C1 [Example 25] | Chikungunya virus (CHIKV) | condition not met |
| CC(O)CCN1CCN(c2cnc(Oc3cc(CN4CCC(CC(=O)O)CC4)cc(-c4cc(Cl)cc(Cl)c4)n3)cn2)CC1 (centres unmarked) [Example 349] | Chikungunya virus (CHIKV) | condition not met |
| CN1CCN(c2ncc(Oc3cc(CN4CCC(OCC(=O)O)C4)cc(-c4cc(Cl)cc(Cl)c4)n3)cn2)CC1 (centres unmarked) [Example 128] | Chikungunya virus (CHIKV) | condition not met |
| CC(=O)NCC1CCN(Cc2cc(Oc3ccc(N4CCN(CCC(=O)O)CC4)nc3)nc(-c3cc(Cl)cc(Cl)c3)c2)CC1 [Example 11, hydrochloride] | Chikungunya virus (CHIKV) | condition not met |
| CN1CCN(c2ncc(Oc3cc(CN4CCC(NC(=O)NS(C)(=O)=O)CC4)cc(-c4cc(Cl)cc(Cl)c4)n3)cn2)CC1 [Example 328] | Chikungunya virus (CHIKV) | condition met |
| CC(=O)NCC1CCN(Cc2cc(Oc3cnc(N4CCN(CCC(=O)O)CC4)cn3)nc(-c3cc(Cl)cc(Cl)c3)c2)CC1 [Example 111] | Chikungunya virus (CHIKV) | condition not met |
| O=C(O)CC1CCN(Cc2cc(Oc3cnc(N4CCN(Cc5cnn[nH]5)CC4)nc3)nc(-c3cc(Cl)cc(Cl)c3)c2)CC1 [Example 387] | Chikungunya virus (CHIKV) | condition met |
| CN1CCN(c2ccc(Oc3cc(CN4CC[C@@H]5[C@H](CC4)[C@H]5C(=O)O)cc(-c4cc(Cl)cc(Cl)c4)n3)nn2)CC1 [Example 361] | Chikungunya virus (CHIKV) | condition not met |
| CC(CO)N1CCN(c2ncc(Oc3cc(CN4CCC(CC(=O)O)CC4)cc(-c4cc(Cl)cc(Cl)c4)n3)cn2)CC1 (centres unmarked) [Example 21] | Chikungunya virus (CHIKV) | condition not met |
| CC(=O)NCC1CCN(Cc2cc(Oc3cnc(N4CCN(CC(C)(C)O)CC4)nc3)nc(-c3cc(Cl)cc(Cl)c3)c2)CC1 [Example 303] | Chikungunya virus (CHIKV) | condition met |
| CC(O)CCN1CCN(c2ncc(Oc3cc(CN4CCC(F)CC4)cc(-c4cc(Cl)cc(Cl)c4)n3)cn2)CC1 (centres unmarked) [Example 60] | Chikungunya virus (CHIKV) | condition met |
| CC(=O)NCC1CCN(Cc2cc(Oc3ccc(N4CCCN(CCC(=O)O)CC4)nc3)nc(-c3cc(Cl)cc(Cl)c3)c2)CC1 [Example 190] | Chikungunya virus (CHIKV) | condition not met |
| CC(=O)NCC1CCN(Cc2cc(Oc3ccc(N4CCN(CCS(C)(=O)=O)CC4)nc3)nc(-c3cc(Cl)cc(Cl)c3)c2)CC1 [Example 12] | Chikungunya virus (CHIKV) | condition not met |
| O=C(O)COC1CCN(Cc2cc(Oc3cnc(N4CCNCC4)nc3)nc(-c3cc(Cl)cc(Cl)c3)c2)CC1 [Example 122] | Chikungunya virus (CHIKV) | condition met |
| C[C@@H](CC1CCN(Cc2cc(Oc3cnc(N4CCN(C)CC4)nc3)nc(-c3cc(Cl)cc(Cl)c3)c2)CC1)C(=O)O [Example 134] | Chikungunya virus (CHIKV) | condition not met |
| C[C@H]1CN(c2ncc(Oc3cc(CN4CCC(CC(=O)O)CC4)cc(-c4cc(Cl)cc(Cl)c4)n3)cn2)CCN1 [Example 159] | Chikungunya virus (CHIKV) | condition not met |
| CC(=O)NCC1CCN(Cc2cc(Oc3cnc(N4CCN(CCC(C)C(=O)O)CC4)cn3)nc(-c3cc(Cl)cc(Cl)c3)c2)CC1 (centres unmarked) [Example 396] | Chikungunya virus (CHIKV) | condition not met |
| CNC(=O)NCC1CCN(Cc2cc(Oc3cnc(N4CCN(CCCS(N)(=O)=O)CC4)nc3)nc(-c3cc(Cl)cc(Cl)c3)c2)CC1 [Example 48] | Chikungunya virus (CHIKV) | condition not met |
| CNC(=O)OCC1CCN(Cc2cc(Oc3ccc(N4CCN(CCC(=O)O)CC4)nc3)nc(-c3cc(Cl)cc(Cl)c3)c2)CC1 [Example 77] | Chikungunya virus (CHIKV) | condition met |
| CS(=O)(=O)CCCN1CCN(c2ncc(Oc3cc(CN4CCC(CC(=O)O)CC4)cc(-c4cc(Cl)cc(Cl)c4)n3)cn2)CC1 [Example 242] | Chikungunya virus (CHIKV) | condition met |
